Cited source for all entries: patent US12595289B2

system: Human breast cancer cell line MCF-7; experiment: Estrogen (E2)-dependent growth assay on MCF-7; type: cell-based; conditions: MCF-7, 10 μM each peptide, 10 nM estrogen, 24 hours
Positions of bridges follow the written chain, without caps; N, C: chain ends. Non-standard residues stand in square brackets, D forms with d. No end group written: not given here. Nle = CCCC[C@H](N)C(=O)O; PEG = not defined here
ATTRIBUTE MEASURED: suppression ratio of E2-dependent growth

{"columns": ["SUBSTANCE", "SYSTEM TESTED", "RECORDED VALUE"],
 "data": [
  ["branched bound: 11-22aa and 76-90aa sequences synthesized with branching, linked via a PEG sequence (peptide 1 RLPAGPRGMGTA; peptide 2 QYPIIYDIRARPRKI; linker (positions not given here) via PEG; not fully specified (N-terminus); reading uncertain; also: branched construct, branch and link places not given here)", "Human breast cancer cell line MCF-7", "57%"],
  ["SEQ ID NO: 121: cross-linked PHB2 peptide 76-88aa without polyarginine at the C terminus (CQYPIIYDIRARPRC-NH2; disulfide 1-15)", "Human breast cancer cell line MCF-7", "about 70%"],
  ["SEQ ID NO: 117: cross-linked PHB2 peptide 11-21aa without polyarginine at the C terminus (CRLPAGPRG[Nle]GTC-NH2; disulfide 1-13)", "Human breast cancer cell line MCF-7", "about 70%"]
]}
